- Test protocol: PK of melphalan in plasma by ESI-LC-MS/MS in patients undergoing HSCT
- Type: in vivo
- Run conditions: human, intravenous, 10 % of the expected standard full dose, lower test doses, ESI-LC-MS/MS, n=4, read-out: calculated mean AUC
Reported property: AUC (ng·h/mL)
Give a bare numeral; the unit ng·h/mL is implied.

Query: Consider the compound N[C@@H](Cc1ccc(N(CCCl)CCCl)cc1)C(=O)O and give its measured AUC.
Result: 430

* * *

- Test protocol: Melphalan test dose and full dose pharmacokinetics in patients undergoing RIC allogeneic HCT for non-malignant disorders (Bayesian analysis of plasma concentrations)
- Format: in vivo, human
- Run conditions: human, plasma, intravenous, 0.47 mg/kg, median and range; patients <10 kg, normal organ function, n=5, dose 0.47 mg/kg; read-out: test dose AUC
Reported property: AUC (ng·h/mL)
Give a bare numeral; the unit ng·h/mL is implied.

Query: Consider the compound N[C@@H](Cc1ccc(N(CCCl)CCCl)cc1)C(=O)O and give its measured AUC.
Result: 560
